test system: SW480; test: cell viability (CellTiter-Glo) relative to plate median (fraction of plate median); higher = more viable cells; conditions: 5 µM; treatment time 24 h; reporter: 7TFP
Label 1 (yes) when cell viability < 1; otherwise 0 (no).

As a guide, the following entries are already answered.
C[C@@H]1CC[C@]2(C(=O)O[C@@H]3O[C@H](CO)[C@@H](O)[C@H](O)[C@H]3O)CC[C@]3(C)C(=CC[C@@H]4[C@@]5(C)C[C@@H](O)[C@H](O)[C@@](C)(CO)[C@@H]5CC[C@]43C)[C@@H]2[C@]1(C)O [Nigaichigoside F1]
0 (no)
Nc1cc(C(Cl)=C(Cl)Cl)c(S(N)(=O)=O)cc1S(N)(=O)=O
0 (no)
O=c1c(O)cc([C@H]2Oc3cc(O)cc(O)c3C[C@H]2O)cc2c([C@H]3Oc4cc(O)cc(O)c4C[C@H]3O)cc(O)c(O)c12
1 (yes)

Report whether reported cell viability is lower than 1 (strictly) for C[C@H]1[C@@H](O)O[C@@H]2O[C@@]3(C)CC[C@H]4[C@H](C)CC[C@@H]1[C@@]24OO3
0 (no)
